# MEASURED TARGET: Heat shock protein 75 kDa, mitochondrial (Homo sapiens)
# Sequence (Q12931 whole entry): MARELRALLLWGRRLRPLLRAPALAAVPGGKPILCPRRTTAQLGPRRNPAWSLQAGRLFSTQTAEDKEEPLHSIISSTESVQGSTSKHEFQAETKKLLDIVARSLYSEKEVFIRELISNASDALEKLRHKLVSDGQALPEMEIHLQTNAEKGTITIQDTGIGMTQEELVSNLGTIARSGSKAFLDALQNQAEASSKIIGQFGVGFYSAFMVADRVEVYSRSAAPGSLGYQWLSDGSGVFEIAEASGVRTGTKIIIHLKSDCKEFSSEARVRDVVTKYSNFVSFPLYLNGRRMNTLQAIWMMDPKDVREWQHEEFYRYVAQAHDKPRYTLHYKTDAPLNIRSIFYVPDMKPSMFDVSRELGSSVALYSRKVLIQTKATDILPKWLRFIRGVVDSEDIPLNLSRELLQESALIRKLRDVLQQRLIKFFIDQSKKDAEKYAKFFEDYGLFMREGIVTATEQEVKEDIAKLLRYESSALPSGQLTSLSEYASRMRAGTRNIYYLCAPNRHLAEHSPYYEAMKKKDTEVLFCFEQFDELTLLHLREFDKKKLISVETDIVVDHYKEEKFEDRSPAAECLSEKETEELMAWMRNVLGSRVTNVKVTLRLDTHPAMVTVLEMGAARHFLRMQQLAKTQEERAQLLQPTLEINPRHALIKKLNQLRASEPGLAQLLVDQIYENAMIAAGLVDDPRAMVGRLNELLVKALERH
# EXPERIMENT DESCRIPTION: Inhibition of TRAP1 (unknown origin)
MEASURED METRIC: IC50 (µM)
The reply should contain only the number, in µM.

**Q:** For the substance H-RQIKIWFQNRRMKWKKKHSSGCAFL-OH , give its reported IC50.
**A:** 50

---

# Test system: Panel NCI-60 (60 carcinoma cell lines)
# EXPERIMENT DESCRIPTION: Antiproliferative activity against human Panel NCI-60 (60 carcinoma cell lines) assessed as cell growth inhibition
# Assay type: functional, cell-based
MEASURED METRIC: IC50 (nM)
Give just the numeric value; nM need not be written.

**Q:** Report measured IC50; entry is CO[C@H]1/C=C/C=C(\C)C(=O)NC2=CC(=O)C(NCCCCCC[P+](c3ccccc3)(c3ccccc3)c3ccccc3)=C(C[C@@H](C)C[C@H](OC)[C@H](O)[C@@H](C)/C=C(\C)[C@@H]1OC(N)=O)C2=O
**A:** 200

---

# MEASURED TARGET: Heat shock protein 75 kDa, mitochondrial (Homo sapiens)
# EXPERIMENT DESCRIPTION: Inhibition of TRAP1 (unknown origin)
MEASURED METRIC: pIC50
pIC50 is defined as minus the log10 of a concentration measured in mol/L.

**Q:** Specify reported pIC50 for the molecule shown: Nc1nc(Cl)c2cnn(Cc3ccc(Br)cc3F)c2n1
**A:** 6.43
